experimental details: Pharmacokinetic study in SD rats after oral administration of TWMM (UPLC-QQQ-MS of plasma)
Type: in vivo, Sprague-Dawley (SD) rats
stated conditions: oral TWMM 9.6 g/kg, n = 6
Exercise: state measured Tmax for each of the compounds provided.
Field: numeric (min). Do not append units.

stdin: Read off the recorded Tmax for C[C@@H]1O[C@@H](O[C@@H]2[C@@H](O)[C@H](OCCc3ccc(O)c(O)c3)O[C@H](CO)[C@H]2OC(=O)/C=C/c2ccc(O)c(O)c2)[C@H](O)[C@H](O)[C@H]1O [Verbascoside]
stdout: 15

stdin: Read off the recorded Tmax for CC=C1[C@H](O[C@@H]2O[C@H](CO)[C@@H](O)[C@H](O)[C@H]2O)OC=C(C(=O)OC)[C@H]1CC(=O)OC[C@H]1O[C@@H](OCCc2ccc(O)cc2)[C@H](O)[C@@H](O)[C@@H]1O (stereo in doubt) [Specnuezhenide]
stdout: 27.6

stdin: Read off the recorded Tmax for COc1ccc(-c2cc(=O)c3c(O)cc(O[C@@H]4O[C@H](CO[C@@H]5O[C@@H](C)[C@H](O)[C@@H](O)[C@H]5O)[C@@H](O)[C@H](O)[C@H]4O)cc3o2)cc1
stdout: 9.6
